# protein stability index per entry
B1: AUP1 (parent)
chain: FCASTRLPPTPLLLFPEEEATNGR

- Variants of: B1
- TEST: protein stability index of a GFP-peptide fusion (GPS, HEK-293T) (PSI 1-6); higher = more stable;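 further: lentivirally expressed fusions sorted by FACS into six bins by GFP to DsRed ratio, PSI derived from sequencing read proportions per bin multiplied by bin number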
- TEST PARAMETERS: c terminus: a fixed tail appended

SEQ TEXT | protein stability index
FCASTRLPPTPLLLFPEDEATNGR | 2.52
FCASTRLPPFPLLLFPEEEATNGR | 1.32
FCASTRLPPTPLLLFPEEETTNGR | 2.97
FCASTRLPPTPGLLFPEEEATNGR | 2.87
FCTSTRLPPTPLLLFPEEEATNGR | 2.84
FCASTRLPPTPLLNFPEEEATNGR | 3.61
FCASTRLPPTPLLLTPEEEATNGR | 3.74
FCASTRLPPTPLLLFPEEENTNGR | 2.43
FCASTRLPPTPLMLFPEEEATNGR | 3.15
FCASTRLPPTPLLLFCEEEATNGR | 2.08
FCASCRLPPTPLLLFPEEEATNGR | 1.86
FCASTRLPPTPLLLFPEEERTNGR | 2.77
FCASTRLPPTPLTLFPEEEATNGR | 3.56
FCASTRLPPTPLLLFPVEEATNGR | 2.09
FSASTRLPPTPLLLFPEEEATNGR | 3.8
FCASTRLPPTPLLLFPEEEAINGR | 2.79
FCASTRLPYTPLLLFPEEEATNGR | 2.03
FCASTRLPPTPDLLFPEEEATNGR | 3.72
FCASTRLPPTPLLLFPEEGATNGR | 2.29
FCASTRLPPLPLLLFPEEEATNGR | 2.23
FCASYRLPPTPLLLFPEEEATNGR | 2.27
FCASTRLPPTILLLFPEEEATNGR | 2.04
FCISTRLPPTPLLLFPEEEATNGR | 2.46

Every entry's value here was drawn from the supplement of paper PMC10567573.
